The reported measurements were obtained from PubChem BioAssay (NCATS).

method_summary: qHTS Screen of the MIPE 4.0 Collection Against Ewings Sarcoma (RDES) (AID 1259252); also: nearly all actives have a fitted effect of over 35% in size; also: potency is read from the fitted curve at half-maximal effect
conditions_used: RD-ES Ewing sarcoma viability, CellTiter-Glo, 48 h; series mostly up to 45.8 µM
Method: There is a large unmet medical need for treatments for Ewing sarcoma, a pediatric sarcoma. […] Using the NCATS developed oncology compound library called the Mechanism of Interrogation Plate (MIPE), four Ewing sarcoma cell lines were evaluated (TC32, TC71, RDES, EW8). Compounds, in a 12-point titration series, were incubated with cells for 48 hours and the read out was cell viability (CellTiter-Glo from Promega). […]
Records with an inconclusive call do not appear. Calls of active or inactive are those of the source. Calls follow the shape of the dose curve; as a rule, active = well fitted inhibition curve with a large enough effect; inconclusive = small, poorly fitted or top-dose-only effect; inactive = no such curve, though single readings can be large or run the other way.
assay_readout: Potency

# compound, Potency
data = [
    ("C=C1C[C@@]2(O)O[C@@]3(C[C@H]2C(C)C)[C@H](C)CC[C@H]13", "inactive"),
    ("COC(=O)C1C2CC3c4[nH]c5cc(OC)ccc5c4CCN3CC2CC(OC(=O)c2cc(OC)c(OC)c(OC)c2)C1OC (centres undefined)", "2.64 µM (active)"),
    ("NC(=O)Nc1sc(-c2ccc(F)cc2)cc1C(N)=O", "1.05 µM (active)"),
    ("Cn1cc(CNCC2CCN(c3ncc(C(=O)NO)cn3)CC2)c2ccccc21", "0.0332 µM (active)"),
    ("O=c1ccn([C@@H]2O[C@H](CO)[C@H](O)[C@@H]2F)c(=O)[nH]1", "3.72 µM (active)"),
    ("C[C@H](NC(=O)C(C#N)=Cc1cccc(Br)n1)c1ccccc1", "16.6 µM (active)"),
]

Continue with the next compound.
stdin: Quick one: Potency of O=C(Nc1cc2cc[nH]c2cn1)c1ccccc1 ?
stdout: 13.2 µM (active)

---

method_summary: qHTS of pediatric cancer cell lines to identify multiple opportunities for drug repurposing: Primary screen for NB-EBc1 cells (AID 1347095)
conditions_used: NB-EBc1 neuroblastoma viability, CellTiter-Glo luminescence, 48 h; series mostly up to 46 µM
Inconclusive results are not listed. Activity calls are given as the source filed them. Calls come from the whole dose curve; as a rule, active = well fitted cell-killing curve with a large enough effect; inconclusive = small, poorly fitted or top-dose-only effect; inactive = no such curve, though single readings can be large or run the other way.
Select the matching outcome among T = active, F = inactive

# molecule, assigned_category
rows = [
    ("CN1[C@H]2CC(OC(=O)[C@@H](CO)c3ccccc3)C[C@H]1[C@H]1O[C@H]12 (stereo not given in full)", "F"),
    ("O=C(CCCCCCC(=O)Nc1cccnc1)NO", "T"),
    ("C=CCNc1c(O)cc2c(O)c1C[C@@H](C)C[C@H](OC)[C@@H](O)[C@@H](C)C=C(C)[C@H](OC(N)=O)[C@@H](OC)C=CC=C(C)C(=O)N2", "T"),
    ("O=c1ccn([C@@H]2O[C@H](CO)[C@H](O)[C@@H]2F)c(=O)[nH]1", "F"),
    ("O=C1NC(O)CCN1[C@@H]1O[C@H](CO)[C@H](O)[C@H]1O (stereo not given in full)", "F"),
    ("CN(N=O)C(=O)N[C@H]1C(O)OC(CO)[C@@H](O)[C@H]1O (stereo not given in full)", "F"),
    ("N#CC(=Cc1ccc(O)c(O)c1)C(=O)NCc1ccccc1", "T"),
    ("CCNC(=O)Nc1ccc(-c2nc3c(c(N4CCOC[C@H]4C)n2)CCN(C2COC2)C3)cc1", "T"),
    ("N=c1ccn2c(n1)O[C@H]1[C@@H](O)[C@@H](CO)O[C@H]12", "T"),
    ("C[C@H]1COc2c(N3CCN(C)CC3)c(F)cc3c(=O)c(C(=O)O)cn1c23", "F"),
]

stdin: Could you please tell me the result logged for N#CNC(=NCCCCCCOc1ccc(Cl)cc1)Nc1ccncc1 in this assay?
stdout: T

stdin: Here is the next molecule: OC[C@@H](O)[C@@H](O)[C@H](O)[C@@H](O)CO
stdout: F

stdin: One more molecule: C[C@H](CCC(=O)O)[C@H]1CCC2C3C[C@H](O)[C@@H]4C[C@H](O)CC[C@]4(C)C3CC[C@@]21C (stereo not given in full)
stdout: F

stdin: Next record, please: Cc1nc(NC(=O)N2CCC[C@@H]2C(N)=O)sc1-c1ccnc(C(C)(C)C(F)(F)F)c1
stdout: T

---

System: MKL-2
method_summary: qHTS assay to identify novel small-molecules to repurpose for Merkel cell carcinoma treatment (AID 1296009); also: nearly all actives have a fitted effect of over 60% in size; also: potency is read from the fitted curve at half-maximal effect
conditions_used: MCC and control cell lines, CellTiter-Glo viability, 72 h; series mostly up to 46 µM
Inconclusive results are not listed. Active and inactive are the calls of the source. Calls follow the shape of the dose curve; as a rule, active = well fitted inhibition curve with a large enough effect; inconclusive = small, poorly fitted or top-dose-only effect; inactive = flat fitted curve, though single readings scatter.
assay_readout: Potency

Illustrative cases are given below, each with its answer.
# compound, value_measured
records = [
    ("CS(=O)(=O)N1CCc2c(-c3cnc(N)nc3)nc(N3CCOCC3)nc21", "inactive"),
    ("CN(C)c1ccc2cc(C(=O)N[C@@H](CCCN=C(N)CCl)C(=O)NCc3ccccc3)ccc2c1", "26.4 µM (active)"),
    ("COc1cc(OC)cc(-c2ccc3ncc4ccc(=O)n(-c5ccc(N6CCNCC6)c(C(F)(F)F)c5)c4c3c2)c1", "8.33 µM (active)"),
    ("OCC(O)C(O)C(O)CO (stereo not given)", "inactive"),
]

stdin: Provide value of Potency for this record tested with MKL-2: C=C1CCC2[C@](C)(CO)C(O)CC[C@]2(C)C1CC=C1C(=O)OCC1O (stereo not given in full)
stdout: inactive

stdin: Same lookup for Cc1cnc(NC(=O)Nc2cc(Br)c(C)cc2OC[C@@H]2CNCCO2)cn1 , please.
stdout: inactive

stdin: Record: Cn1cc(C[C@@H](N)C(=O)O)c2ccccc21
stdout: inactive

stdin: Same question, CCOC(=O)N1CCN([N+]([O-])=NOc2ccc([N+](=O)[O-])cc2C#N)CC1 this time
stdout: 1.18 µM (active)

stdin: Proceed to C=C1C(=CC=C2CCC[C@]3(C)[C@@H]([C@H](C)CCCC(C)(C)O)CC[C@@H]23)C[C@@H](O)C[C@@H]1O
stdout: 6.62 µM (active)

stdin: Try this compound too: NC(=NCCCCCCN=C(N)N=C(N)Nc1ccc(Cl)cc1)N=C(N)Nc1ccc(Cl)cc1
stdout: 11.8 µM (active)

---

Tested on: CP237
method_summary: qHTS profiling for inhibitors of Plasmodium falciparum proliferation (AID 504749); also: nearly all actives have a fitted effect of over 60% in size
conditions_used: P. falciparum in erythrocytes, SYBR Green DNA, 72 h; series mostly up to 28.7 µM
Records with an inconclusive call do not appear. Active and inactive are the calls of the source. Calls come from the whole dose curve; as a rule, active = well fitted inhibition curve with a large enough effect; inconclusive = small, poorly fitted or top-dose-only effect; inactive = flat fitted curve, though single readings scatter.
Pick one and only one: active, inactive

// below: answered compounds
# compound, assigned_category
data = [
    ("Nc1nc2c(c(=O)[nH]1)N(C=O)[C@H](CNc1ccc(C(=O)N[C@@H](CCC(=O)O)C(=O)O)cc1)CN2", "inactive"),
    ("CCCCCCCCCCCC(CC1OC(=O)C1CCCCCC)OC(=O)C(CC(C)C)NC=O (stereo unspecified)", "active"),
    ("COc1ccc([C@@H]2CNC(=O)C2)cc1OC1CCCC1", "inactive"),
    ("COc1ccc2c(c1OC)C(=O)OC2[C@H]1c2c(cc3c(c2OC)OCO3)CCN1C (stereo partly specified)", "inactive"),
]

stdin: Recorded test call requested for COc1cccc2c1C(=O)c1c(O)c3c(c(O)c1C2=O)C[C@@](O)(C(=O)CO)C[C@@H]3O[C@H]1C[C@H](N)[C@H](OC2CCCCO2)[C@H](C)O1 (stereo partly specified)
stdout: active

stdin: Then what about the compound CCC(C(=O)O)C1CCC(C)C(C(C)C(O)C(C)C(=O)C(CC)C2OC3(C=CC(O)[C@@]4(CC[C@](C)(C5CC[C@@](O)(CC)C(C)O5)O4)O3)C(C)CC2C)O1 (stereo partly specified) ?
stdout: active

---

method_summary: Quantitative High-Throughput drug screen in 47 multiple myeloma cell lines against the NCATS MIPE library collection: MM1R_ATCC cell viability assay (AID 1918981); also: nearly all actives have a fitted effect of over 35% in size; also: potency is read from the fitted curve at half-maximal effect
conditions_used: MM1R multiple myeloma cells, CellTiter-Glo viability, 48 h; series mostly up to 45.8 µM
Excerpt: PI: Beverly A. Mock Ph.D. Laboratory of Cancer Biology and Genetics, Center for Cancer Research, National Cancer Institute, National Institute of Health, Bethesda, Maryland […] 5; Detector; 425V; Luminescence; Viewlux PerkinElmer. […] 1. […] Briefly, the corresponding myeloma cell lines were screened in 1,536-well plates with 500 cells, 5-uL per well for inhibition of cell viability (assessed by measuring ATP levels with CellTiterGlo). […]
Inconclusive results are not listed. Active and inactive are the calls of the source. Calls come from the whole dose curve; as a rule, active = well fitted cell-killing curve with a large enough effect; inconclusive = small, poorly fitted or top-dose-only effect, or effect the other way; inactive = no such curve, though single readings can be large or run the other way.
assay_readout: Potency

As a guide, the following entries are already answered.
# molecule, value_measured
rows = [
    ("CN1CCCN(C(=O)c2cccc(-c3ccc(C=C4C(=O)Nc5ccc(Cl)cc54)o3)c2)CC1", "5.9 µM (active)"),
    ("Cc1noc(-c2ccc(CSCCC(=O)O)cc2)c1NC(=O)OC(C)c1ccccc1Cl (stereo unspecified)", "inactive"),
    ("O=C1NCCc2[nH]c(-c3ccncc3)cc21", "2.64 µM (active)"),
    ("C=CCNc1c(O)cc2c(O)c1C[C@@H](C)C[C@H](OC)[C@@H](O)[C@@H](C)C=C(C)[C@H](OC(N)=O)[C@@H](OC)C=CC=C(C)C(=O)N2", "0.526 µM (active)"),
    ("CC(=O)N[C@H]1[C@@H]([C@H](O)[C@H](O)CO)OC(C(=O)O)=C[C@@H]1N=C(N)N", "inactive"),
]

Kindly consider the entry below.
stdin: Endpoint output: Potency of CC[C@H](CC[C@@H](C)[C@H]1CC[C@H]2[C@@H]3CC=C4C[C@@H](O)CC[C@]4(C)[C@@H]3CC[C@]12C)C(C)C . Value?
stdout: inactive
